# TGT: Fibroblast growth factor receptor 4 (Homo sapiens) (UniProt P22455)
# Sequence (P22455 22-802 limits assumed): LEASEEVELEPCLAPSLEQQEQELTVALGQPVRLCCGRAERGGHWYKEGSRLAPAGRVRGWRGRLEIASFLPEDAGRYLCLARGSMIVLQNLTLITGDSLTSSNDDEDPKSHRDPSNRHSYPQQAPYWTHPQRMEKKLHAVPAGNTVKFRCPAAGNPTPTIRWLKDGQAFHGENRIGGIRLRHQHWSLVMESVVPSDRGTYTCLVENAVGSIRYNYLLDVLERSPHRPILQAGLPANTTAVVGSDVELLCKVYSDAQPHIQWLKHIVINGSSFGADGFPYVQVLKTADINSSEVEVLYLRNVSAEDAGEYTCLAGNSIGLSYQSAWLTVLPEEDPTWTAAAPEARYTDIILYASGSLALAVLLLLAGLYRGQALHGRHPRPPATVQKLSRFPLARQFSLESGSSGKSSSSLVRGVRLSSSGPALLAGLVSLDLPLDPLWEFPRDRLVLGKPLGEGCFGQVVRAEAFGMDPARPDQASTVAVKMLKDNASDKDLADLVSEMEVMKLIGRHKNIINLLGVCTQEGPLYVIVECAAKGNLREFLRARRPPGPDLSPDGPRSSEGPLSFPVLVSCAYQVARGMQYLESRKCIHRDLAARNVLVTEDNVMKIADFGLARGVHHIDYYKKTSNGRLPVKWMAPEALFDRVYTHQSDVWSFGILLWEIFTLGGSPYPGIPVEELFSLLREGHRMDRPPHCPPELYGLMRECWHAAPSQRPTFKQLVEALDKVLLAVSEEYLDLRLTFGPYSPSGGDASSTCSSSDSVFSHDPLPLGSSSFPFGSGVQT
# CONDITION DESCRIPTION: at 1 µM
MEASURED ATTRIBUTE: residual activity (%)
Reply with just the number (in %).

Some solved cases for reference:
# QUERY SMILES, OBSERVED
data = [
    ("COc1cc2c(cc1OC)-c1n[nH]c(Nc3cccc(F)c3)c1C2", 117),
    ("CC(C)(C)c1nc2c3ccc(F)cc3c3c(=O)[nH]ccc3c2[nH]1", 119),
    ("N#C/C(=C1/Nc2ccccc2S1)c1ccnc(NCCc2cccnc2)n1", 117),
    ("CC(C)(C)n1nc(Cc2cccc3ccccc23)c2c(N)ncnc21", 115),
    ("Cc1cc(C)c(/C=C2\\C(=O)Nc3ccccc32)[nH]1", 124),
]

Look up residual activity: CCCCc1c(-c2ccc(O)cc2)[nH]c2nccnc12
127

###

# TGT: Serine/threonine-protein kinase VRK2 (Homo sapiens)
# CONDITION DESCRIPTION: at 10 µM
# Description: Millipore: Percentage of residual kinase activity of VRK2 at 10uM relative to control. Control inhibitor: Phosphoric acid* at 0.3uM. Buffer: 8 mM MOPS pH 7.0, 0.2 mM EDTA
Tag: TRUE if measured residual activity is not below 90%, FALSE if it is.

As a guide, the following entries are already answered.
# COMPOUND, CLASS NAME
data = [
    ("CCCC(=O)Oc1ccc2[nH]c(C(=O)c3cc4ccccc4[nH]3)cc2c1", "FALSE"),
    ("Fc1ccc(-c2nc3n(c2-c2ccncc2)CCS3)cc1", "FALSE"),
    ("O=C1C(Cl)=C(N2C(=O)CCC2=O)C(=O)c2ccccc21", "TRUE"),
    ("NC(=O)Nc1sc(-c2ccc(F)cc2)cc1C(N)=O", "FALSE"),
    ("CC(C)c1nn(-c2c(Cl)cccc2Cl)c2nc(Cc3ccc(OCCO)cc3)[nH]c(=O)c12", "TRUE"),
]

Please tell me: is the compound COc1cc2ncnc(Nc3cccc(Cl)c3)c2cc1OC at or over 90% in terms of residual activity?
FALSE

Here is the next compound: CSc1nc(-c2ccc(F)cc2)c(-c2ccnc(NC(C)c3ccccc3)c2)[nH]1 (configuration not stated)
TRUE

###

# TGT: Protein kinase C delta type (Homo sapiens) (UniProt Q05655)
# Sequence (Q05655 whole entry, looked up): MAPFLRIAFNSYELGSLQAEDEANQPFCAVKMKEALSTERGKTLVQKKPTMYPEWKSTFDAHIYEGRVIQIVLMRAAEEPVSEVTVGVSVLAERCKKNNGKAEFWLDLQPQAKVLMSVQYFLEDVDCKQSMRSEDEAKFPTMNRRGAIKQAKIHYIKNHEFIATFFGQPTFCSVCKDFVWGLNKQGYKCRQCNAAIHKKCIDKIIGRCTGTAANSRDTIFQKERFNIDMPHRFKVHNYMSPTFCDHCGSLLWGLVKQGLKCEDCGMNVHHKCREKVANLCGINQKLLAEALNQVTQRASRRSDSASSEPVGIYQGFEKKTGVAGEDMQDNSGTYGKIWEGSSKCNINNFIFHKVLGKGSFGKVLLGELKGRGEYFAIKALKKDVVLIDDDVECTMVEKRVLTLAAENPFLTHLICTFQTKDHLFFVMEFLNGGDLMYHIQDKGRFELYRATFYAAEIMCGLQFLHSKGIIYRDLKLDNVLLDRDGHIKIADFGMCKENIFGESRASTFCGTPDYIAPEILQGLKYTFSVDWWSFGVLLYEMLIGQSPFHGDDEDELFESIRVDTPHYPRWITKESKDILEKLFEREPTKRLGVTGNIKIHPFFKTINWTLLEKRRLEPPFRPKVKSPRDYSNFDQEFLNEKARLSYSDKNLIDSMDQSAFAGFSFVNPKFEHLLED
# CONDITION DESCRIPTION: at 1 µM
# residual activity listing for each entry below
Reply with just the number (in %).

Look up residual activity: O=c1cc(N2CCNCC2)oc2c(-c3ccccc3)cccc12
101

Here is the next molecule: CCOc1nc(NC(=O)Cc2cc(OC)ccc2OC)cc(N)c1C#N
118

Here is the next molecule: COc1cc2nccc(Oc3ccc(NC(=S)NC(=O)c4ccccc4C)cc3)c2cc1OC
98

Here is the next molecule: Nc1n[nH]c2nc3ccccc3nc12
85

Here is the next molecule: CCCCc1c(-c2ccc(O)cc2)[nH]c2nccnc12
97

Here is the next molecule: COc1ccc2c(c1)c(C1=C(c3c[nH]c4ccccc34)C(=O)NC1=O)cn2CCCN(C)C
3

###

# residual activity listing for each entry below
# TGT: Serine/threonine-protein kinase Nek11 (Homo sapiens)
# CONDITION DESCRIPTION: at 1 µM
Reply with just the number (in %).

Some solved cases for reference:
# COMPOUND, TGT, residual activity, %
data = [
    ("N#C/C(=C1/Nc2ccccc2S1)c1ccnc(NCCc2cccnc2)n1", "Serine/threonine-protein kinase Nek11 (Homo sapiens)", 45),
    ("Nc1nccc(-c2c(-c3ccc(F)cc3)ncn2C2CCNCC2)n1", "Serine/threonine-protein kinase Nek11 (Homo sapiens)", 68),
    ("O=C1NC(=O)C(c2cn(CCCO)c3ncccc23)=C1c1cnccn1", "Serine/threonine-protein kinase Nek11 (Homo sapiens)", 72),
    ("CCN1/C(=C/C(C)=O)Sc2ccc(OC)cc21", "Serine/threonine-protein kinase Nek11 (Homo sapiens)", 49),
    ("c1ccc(-c2cnc(Nc3ccc(OCCN4CCCC4)cc3)s2)cc1", "Serine/threonine-protein kinase Nek11 (Homo sapiens)", 81),
]

Which measured residual activity belongs to Fc1ccc(-c2nc3n(c2-c2ccncc2)CCS3)cc1 , tested on Serine/threonine-protein kinase Nek11 (Homo sapiens)?
77

Here is the next compound: COc1cc2nccc(Oc3ccc(NC(=S)NC(=O)c4ccccc4C)cc3)c2cc1OC
99

Here is the next compound: O=C1Nc2ccc(Cl)cc2/C1=C/c1cc(Cl)c(O)c(Cl)c1
52

Here is the next compound: O=C(c1cc2cc(O)ccc2[nH]1)c1cc2cc(O)ccc2[nH]1
54

Here is the next compound: O=C(NC(NC(=S)Nc1ccc(F)c([N+](=O)[O-])c1)C(Cl)(Cl)Cl)C(c1ccccc1)c1ccccc1 (stereo unspecified)
86

Here is the next compound: O=C1NC(=O)C(c2cn(CCCn3ccnc3)c3ccccc23)=C1Nc1ccccc1
59
